tested on: Receptor-type tyrosine-protein kinase FLT3 (Homo sapiens), P36888 [D835Y]; conditions: at 1 µM
QUANTITY KIND: inhibition
Please answer using a numeric value trailed by its unit.

Ask: Can you share its inhibition? I mean this compound: NS(=O)(=O)c1ccc(N/N=C2\C(=O)Nc3ccc(-c4cnco4)cc32)cc1
Reply: 73.1%

Ask: # inhibition lookup, item CN(C)CCCNc1nccc(-c2c(-c3ccc(F)cc3)nn3cc(C(F)(F)F)ccc23)n1
Reply: 2.47%

Ask: Reported inhibition for O=C1NC(=O)C(c2cccc(Cl)c2)=C1Nc1ccc(Cl)c(C(=O)O)c1 : what is it?
Reply: -3.79%

Ask: I'd like to know its inhibition. The compound in question is Fc1ccc(-c2nc3n(c2-c2ccncc2)CCS3)cc1
Reply: -0.91%

Ask: Query (compound): FC(F)(F)c1cccc(Nc2nccc(-c3cnn4nc(-c5ccccc5)ccc34)n2)c1 ; field requested: inhibition
Reply: 26.7%

Ask: Requested field: inhibition. Item: COc1ccc2cc(-c3c(-c4ccncc4)nc(-c4ccc(S(C)(=O)=O)cc4C)n3C)ccc2c1
Reply: -2.55%

Ask: GET /values?readout=inhibition&item= NCc1ccc(-n2c(-c3nonc3N)nc3cnccc32)cc1
Reply: 6.04%

Ask: Form field: reported inhibition of COc1ccc(C2=C(N3CCc4ccccc43)C(=O)NC2=O)cc1
Reply: 3.5%

Ask: I would be grateful if you could share the reported inhibition for Nc1nccc(-c2c(-c3ccc(F)cc3)ncn2C2CCC(O)CC2)n1 (stereo unspecified) .
Reply: 0.98%

Ask: // lookup inhibition for CN1CCN(CCCNc2nc3ccc(Oc4ccc(NC(=O)Nc5cc(C(F)(F)F)ccc5F)cc4)cc3[nH]2)CC1
Reply: 1.66%

Ask: I would be grateful if you could share the reported inhibition for NC(=O)c1cc(-c2ccncc2)cc(-c2ccccc2)c1N .
Reply: 2.51%

Ask: # lookup: inhibition of COc1ccc2cc(-c3c(-c4ccncc4)nc(-c4ccc([S+](C)[O-])cc4C)n3C)ccc2c1 (stereo unspecified)
Reply: 4.56%

Ask: Looking for the measured inhibition of COc1cc2ncn(-c3cc(OCCc4ccccc4)c(C(N)=O)s3)c2cc1OC , can you help?
Reply: 1.07%

Ask: Which inhibition is reported for this compound? C/C(Nc1ccc(S(N)(=O)=O)cc1)=C1/C(=O)Nc2ccccc21
Reply: 46.8%

Ask: Give the measured inhibition of COc1cc(Nc2ncc3c(C)nc(-c4cccc(C(F)(F)F)c4)n3n2)cc(OC)c1OC .
Reply: 35.8%

Ask: Suppose we examine the compound CCS(=O)(=O)c1ccc(OC)c(Nc2ncc(-c3ccccc3Cl)o2)c1 ; what inhibition value has been reported?
Reply: 17.4%

Ask: So what does the record say about inhibition for CS(=O)(=O)CCNCc1cc(-c2cc3c(Nc4ccc(OCc5cccc(F)c5)c(Cl)c4)ncnc3s2)cs1 ?
Reply: 5.05%

Ask: So what's the measured inhibition for this one? O=C(Nc1n[nH]c2nc(-c3ccc(O)cc3)c(Br)cc12)C1CC1
Reply: 27.1%

Ask: Consider the compound COc1cc2ncn(-c3cc(OCc4cccs4)c(C(N)=O)s3)c2cc1OC and give its measured inhibition.
Reply: 1.62%

Ask: I have this compound here, Fc1ccc(-c2ncn(C3CCNCC3)c2-c2ccnc(Oc3ccc(F)c(F)c3)n2)cc1 , and I need its recorded inhibition.
Reply: -6.12%

Ask: // query inhibition value for entry O=C(Nc1n[nH]c2cc(-c3ccccc3)ccc12)C1CC1
Reply: 4.54%
